Catalogue of Kd values
- experimental.system: feline FcRn complex (FcRn-α subunit and β-microglobulin) (feline)
- assay.remarks: SPR (Biacore), FcRn on SA chip, pH 7.4
Expressed in µM, but write only the number.

# binder, Kd, µM
rows = [
    ("feline IgG1a mutant ID No. 279: S252R, S434Y (antibody, part only; not given: Variable domains, not shown: another chain or arm of the molecule) constant: ASTTAPSVFPLAPSCGTTSGATVALACLVLGYFPEPVTVSWNSGALTSGVHTFPAVLQASGLYSLSSMVTVPSSRWLSDTFTCNVAHPPSNTKVDKTVRKTDHPPGPKPCDCPKCPPPEMLGGPSIFIFPPKPKDTLRISRTPEVTCLVVDLGPDDSDVQITWFVDNTQVYTAKTSPREEQFNSTYRVVSVLPILHQDWLKGKEFKCKVNSKSLPSPIERTISKAKGQPHEPQVYVLPPAQEELSRNKVSVTCLIKSFHPPDIAVEWEITGQPEPENNYRTTPPQLDSDGTYFVYSKLSVDRSHWQRGNTYTCSVSHEALHYHHTQKSLTQSPGK", 12.1),
]

Continue with the next binder.
Inquiry: GET /values?readout=Kd&item= feline IgG1a mutant ID No. 332: S428Y, D312P, S434Y, Q311R, L314K (antibody, part only; not given: Variable domains, not shown: another chain or arm of the molecule; small tags and cut ends) constant: ASTTAPSVFPLAPSCGTTSGATVALACLVLGYFPEPVTVSWNSGALTSGVHTFPAVLQASGLYSLSSMVTVPSSRWLSDTFTCNVAHPPSNTKVDKTVRKTDHPPGPKPCDCPKCPPPEMLGGPSIFIFPPKPKDTLSISRTPEVTCLVVDLGPDDSDVQITWFVDNTQVYTAKTSPREEQFNSTYRVVSVLPILHRPWKKGKEFKCKVNSKSLPSPIERTISKAKGQPHEPQVYVLPPAQEELSRNKVSVTCLIKSFHPPDIAVEWEITGQPEPENNYRTTPPQLDSDGTYFVYSKLSVDRSHWQRGNTYTCSVYHEALHYHHTQKSLTQSPGK
Reply text: 0.0286

// provenance: patent US20240400708A1
